FYI, the data here is from ChEMBL document CHEMBL3808334.

Items are presented alongside their recorded growth at 100 µM.
Test system: NCI/ADR-RES
Assay: Growth inhibition of human NCI/ADR-RES cells assessed as cell growth at 10^-4 M incubated for 48 hrs by sulforhodamine B assay
Assay type: functional
Details: read-out: Activity
OBSERVED PROPERTY: growth at 100 µM (%)

                        structure_as_smiles  readout_units  observed_result
0  c1ccc(-c2nc(Nc3ccc(-c4nc5ccccc5[nH]4)cc3)nc(N3CCOCC3)n2)cc1              %              -33
1  c1ccc2[nH]c(-c3ccc(Nc4nc(N5CCCCC5)nc(N5CCOCC5)n4)cc3)nc2c1              %              -10
2  Clc1ccc(-c2nc(Nc3ccc(-c4nc5ccccc5[nH]4)cc3)nc(N3CCOCC3)n2)cc1              %               -7
3  Fc1ccc(-c2nc(Nc3ccc(-c4nc5ccccc5[nH]4)cc3)nc(N3CCOCC3)n2)cc1              %              -13
